Test system: HEPG2 (human liver) cell line
Experiment: MTT anticancer assay, HepG2
Format: cell-based
Details: HepG2, 6.25 µg/ml
ASSAY METRIC: % cell viability (%)
The figure you give is taken to be in %; do not add the unit.

Item `Cc1cc(C=NNC(=O)c2cc(-c3ccc(Br)cc3)n(-c3ccc(S(N)(=O)=O)cc3)n2)cc(C)c1OCc1ccccc1` with HEPG2 (human liver) cell line - % cell viability?
84.40

Likewise for `COc1ccc(-c2cc(C(=O)NN=Cc3ccc(Oc4ccccc4)cc3)nn2-c2ccc(S(N)(=O)=O)cc2)cc1` ?
78.42

Same question, `NS(=O)(=O)c1ccc(-n2nc(C(=O)NN=Cc3ccc(Cl)cc3O)cc2-c2ccc(Br)cc2)cc1` this time
85.46

Field: next compound
Value wanted: % cell viability (HEPG2 (human liver) cell line) of entry `NS(=O)(=O)c1ccc(-n2nc(C(=O)NN=Cc3cccc(Oc4ccccc4)c3)cc2-c2ccc(Cl)cc2)cc1`
84.39
